Molecular target: CARM1 N161E (Homo sapiens, UniProt Q86X55, N161E)
Sequence (Q86X55 135-479 N161E): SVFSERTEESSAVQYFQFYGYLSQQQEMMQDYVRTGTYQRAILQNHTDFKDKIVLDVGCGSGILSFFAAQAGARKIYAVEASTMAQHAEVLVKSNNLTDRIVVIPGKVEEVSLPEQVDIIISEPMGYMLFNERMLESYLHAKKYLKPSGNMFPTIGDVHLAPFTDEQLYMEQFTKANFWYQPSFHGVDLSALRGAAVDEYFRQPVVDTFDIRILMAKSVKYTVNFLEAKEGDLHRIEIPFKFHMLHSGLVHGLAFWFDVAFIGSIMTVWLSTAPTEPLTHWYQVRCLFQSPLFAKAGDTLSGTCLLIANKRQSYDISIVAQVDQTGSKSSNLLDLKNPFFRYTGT
Experiment: ITC with CARM1 N161E mutant
# maps each entry to its pKd
pKd (log units): -log10 of the concentration in mol/L.

Just so you know, measured pKd for Nc1ncnc2c1ncn2[C@@H]1O[C@H](CN(CCCNc2ccccn2)CC[C@H](N)C(=O)O)[C@@H](O)[C@H]1O came out at 6.74

Just so you know, measured pKd for NCCCN(CCCNc1ncccn1)C[C@H]1O[C@@H](n2cnc3c(N)ncnc32)[C@H](O)[C@@H]1O came out at 5.95

Just so you know, measured pKd for N=C(N)NCCCCCN(CC[C@H](N)C(=O)O)C[C@H]1O[C@@H](n2cnc3c(N)ncnc32)[C@H](O)[C@@H]1O came out at 5.09

Just so you know, measured pKd for NCCCN(CCCNc1ccccn1)C[C@H]1O[C@@H](n2cnc3c(N)ncnc32)[C@H](O)[C@@H]1O came out at 6.45
